The values you see were collected from a melting point compilation (Tetko et al.; mined from patent text by program, amines drawn as free bases though some values may be those of a salt).

experimentalEndpoint: melting point

Examples from the recorded data:
| molecule | experimentalEndpoint | reading |
| --- | --- | --- |
| CC(c1ccccc1)N1CC(CF)(C(=O)NCc2ccccc2)CC1=O (stereo not drawn) | melting point | 114 to 116 °C |
| O=C1c2ccccc2C(=O)C1(O)c1cc(F)ccc1O | melting point | 189 to 193 °C |
| NC(=O)c1cccc(OCCCCCCBr)c1 | melting point | 115 to 117 °C |
| Oc1ccc(-c2cccc(OC3SCC(O)C(O)C3O)c2)cn1 (stereo not drawn) | melting point | 200 °C |
| Nc1nc(-c2cc(Cl)ccc2Cl)nc(N2CCCCC2C(=O)O)n1 (stereo not drawn) | melting point | 237 to 240 °C |

Report melting point for O=C(O)/C=C/c1ccc(N2CCC3(CC2)OCCO3)cc1 please. 221 to 222 °C

Moving on to the next molecule: CCC(=O)S(=O)(=O)c1ccc(C=C(C)c2ccc3c(c2)C(C)(C)CCC3(C)C)cc1 140 to 141 °C

Moving on to the next molecule: C[C@H](CSC(=O)c1ccc(Cl)c(S(N)(=O)=O)c1)C(=O)O 152 to 153 °C

Moving on to the next molecule: Cc1ncc(COP(=O)(O)O)c(CN(CCN(CC(=O)O)Cc2c(COP(=O)(O)O)cnc(C)c2O)CC(=O)O)c1O 174 to 180 °C
